These entries and their values trace back to paper PMC11999280.

# Tested on: mCherry-GAL9 expressing 16HBE cells
# assay details: GAL9 recruitment assay, 16HBE
# Type: cell-based
# assay setup: EEE 0.62 µM, calculated mean from >3 independent exp.
# Description: Experiments assessing GAL9 localization as an indicator for endosomal remodeling were performed as previously described[15] using 8× stablemCherry-GAL9 expressing cell lines, SHSY5Y, U2OS, 16HBE, NCI-H358, HuH7, HepG2, HEK293, and HeLa. For mCherry-GAL9 recruitment, 3,000 or 6,500 cells/well (depending upon cell line) were seeded into 384-well CellCarrier Ultra plates 24 h prior to treatment (PerkinElmer, catalog no. 6007558). […]
Threshold 0.01. Gal9 response compared to reference below it: Yes. Gal9 response compared to reference at it or above: No.

Worked set:
compound	class assignment
COc1nn(C2CCN(C)CC2)cc1Nc1ncc(F)c(-n2ccc3ccc(C#N)cc32)n1 [EEE14]	No
CCOc1nn(C2CCN(C)CC2)cc1Nc1ncc(C(F)(F)F)c(-c2c[nH]c3ccccc23)n1 [EEE15]	Yes
COc1nn(C2CCN(CCCO)CC2)cc1Nc1ncc(F)c(-n2ccc3c(C#N)cccc32)n1 [EEE12]	No
COc1nn(C2CCN(C)CC2)cc1Nc1ncc(F)c(-n2ccc3c(C#N)cccc32)n1 [EEE8]	No
CCCN1CCC(n2cc(Nc3ncc(F)c(-n4ccc5c(C#N)cccc54)n3)c(OC)n2)CC1 [EEE10]	No
COc1nn(C2CCN(C(C)C)CC2)cc1Nc1ncc(F)c(-n2ccc3c(C#N)cccc32)n1 [EEE9]	No
CCOc1nn(C2CCN(C)CC2)cc1Nc1ncc(F)c(-n2ccc3c(C#N)cccc32)n1 [EEE13]	No
COc1nn(C2CCN(C)CC2)cc1Nc1ncc(C(F)(F)F)c(-n2ccc3c(C#N)cccc32)n1 [EEE16]	Yes

Query: Does this compound meet the criterion Gal9 response compared to reference < 0.01? CCN1CCC(n2cc(Nc3ncc(F)c(-n4ccc5c(C#N)cccc54)n3)c(OC)n2)CC1 [EEE11]
Reply: No

Query: In plain terms, does COc1nn(C2CCNCC2)cc1Nc1ncc(C(F)(F)F)c(-c2c[nH]c3ccccc23)n1 [EEE24] come in under 0.01 for Gal9 response compared to reference?
Reply: No

Query: A record lists COc1nn(C2CCNCC2)cc1Nc1ncc(F)c(-n2ccc3c(C#N)cccc32)n1 [EEE4] . Is its Gal9 response compared to reference below 0.01?
Reply: No

---

# Tested on: mCherry-GAL9 expressing HEK293 cells
# assay details: GAL9 recruitment assay, HEK293
# Format: cell-based
# assay setup: EEE 5 µM, calculated mean from >3 independent exp.
metric: Gal9 response compared to reference
Lab note: write the figure by itself, no unit.

compound	Gal9 response compared to reference
CCCN1CCC(n2cc(Nc3ncc(F)c(-n4ccc5c(C#N)cccc54)n3)c(OC)n2)CC1 [EEE10]	0.672
COc1nn(C2CCN(CCCO)CC2)cc1Nc1ncc(F)c(-n2ccc3c(C#N)cccc32)n1 [EEE12]	0.604
COc1nn(C2CCNCC2)cc1Nc1ncc(C(F)(F)F)c(-c2c[nH]c3ccccc23)n1 [EEE24]	0.100
COc1nn(C2CCN(C)CC2)cc1Nc1ncc(Cl)c(-n2ccc3c(C#N)cccc32)n1 [EEE17]	0.096

Next, consider the following compound.
The recorded Gal9 response compared to reference for entry COc1nn(C2CCN(C)CC2)cc1Nc1ncc(F)c(-n2ccc3ccc(C#N)cc32)n1 [EEE14] equals 0.123
